Target: STK16 (Homo sapiens)
Construct: purchased Research Biology Corp. (http://www.reactionbiology.com)
Sequence (O75716 whole entry): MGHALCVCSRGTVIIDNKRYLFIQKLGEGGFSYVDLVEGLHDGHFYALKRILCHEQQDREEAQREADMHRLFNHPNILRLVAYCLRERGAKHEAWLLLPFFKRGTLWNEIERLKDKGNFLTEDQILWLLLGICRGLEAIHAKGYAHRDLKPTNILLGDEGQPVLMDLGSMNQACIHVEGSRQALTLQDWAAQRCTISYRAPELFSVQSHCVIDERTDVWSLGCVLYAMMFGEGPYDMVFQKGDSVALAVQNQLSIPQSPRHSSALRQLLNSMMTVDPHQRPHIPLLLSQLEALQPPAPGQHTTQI
Assay: Kinase Profiler, residual kinase activity
Type: biochemical
Conditions: STK16; inhibitor at 500 nM; read-out: percentage of the remaining kinase activity
Field: remaining activity at 0.5 µM. Provide a value for each of the molecules that follow.
Numbers only, in %.

Please review the following examples before continuing.
                                   molecule  reported_result
0  COC1C(N(C)C(=O)C(N)Cc2c[nH]cn2)CC2OC1(C)n1c3ccccc3c3c4c(c5c6ccccc6n2c5c31)C(=O)NC4 (stereo not shown)               59
1  COC1C(N(C)C(=O)C(N)Cc2cn(C(=O)OC(C)(C)C)c3ccccc23)CC2OC1(C)n1c3ccccc3c3c4c(c5c6ccccc6n2c5c31)C(=O)NC4 (stereo not shown)              105
2  COC1C(N(C)Cc2ccc(-c3ccccc3)cc2)CC2OC1(C)n1c3ccccc3c3c4c(c5c6ccccc6n2c5c31)C(=O)NC4 (stereo not shown)              103
3  COC1C(N(C)C(=O)C(N)Cc2ccc(O)cc2)CC2OC1(C)n1c3ccccc3c3c4c(c5c6ccccc6n2c5c31)C(=O)NC4 (stereo not shown)             86.7
4  COC1C(N(C)C(=O)C(N)Cc2ccc(OC(C)(C)C)cc2)CC2OC1(C)n1c3ccccc3c3c4c(c5c6ccccc6n2c5c31)C(=O)NC4 (stereo not shown)             99.8
5  COC1C(N(C)C(=O)C(N)CCC(=O)O)CC2OC1(C)n1c3ccccc3c3c4c(c5c6ccccc6n2c5c31)C(=O)NC4 (stereo not shown)             51.6

Noted for COC1C(N(C)C(=O)C(N)CCC(=O)OC(C)(C)C)CC2OC1(C)n1c3ccccc3c3c4c(c5c6ccccc6n2c5c31)C(=O)NC4 (stereo not shown) : its remaining activity at 0.5 µM reads 94

----------
Biological target: PRKACA (Homo sapiens)
Construct: purchased Research Biology Corp. (http://www.reactionbiology.com)
Experiment: Kinase Profiler, residual kinase activity
Type: biochemical
Settings: PRKACA; inhibitor at 500 nM; read-out: percentage of the remaining kinase activity
Field: remaining activity at 0.5 µM. Provide a value for each of the compounds that follow.
Numbers only, in %.

Please review the following examples before continuing.
>>> df
                                   compound  unit_symbol  reported_result
0  COC1C(N(C)C(=O)C(N)Cc2ccc(OC(C)(C)C)cc2)CC2OC1(C)n1c3ccccc3c3c4c(c5c6ccccc6n2c5c31)C(=O)NC4 (stereo not shown)            %             38.3
1  COC1C(N(C)C(=O)C(N)Cc2cn(C(=O)OC(C)(C)C)c3ccccc23)CC2OC1(C)n1c3ccccc3c3c4c(c5c6ccccc6n2c5c31)C(=O)NC4 (stereo not shown)            %             81.1
2  COC1C(N(C)C(=O)C(N)CCC(=O)O)CC2OC1(C)n1c3ccccc3c3c4c(c5c6ccccc6n2c5c31)C(=O)NC4 (stereo not shown)            %             18.6

Then this compound:
Noted for COC1C(N(C)C(=O)C(N)CCC(=O)OC(C)(C)C)CC2OC1(C)n1c3ccccc3c3c4c(c5c6ccccc6n2c5c31)C(=O)NC4 (stereo not shown) : its remaining activity at 0.5 µM reads 40.8

----------
Field: remaining activity at 0.5 µM. Provide a value for each of the compounds that follow.
Target: CAMK2D (Homo sapiens)
Sequence (Q13557 whole entry): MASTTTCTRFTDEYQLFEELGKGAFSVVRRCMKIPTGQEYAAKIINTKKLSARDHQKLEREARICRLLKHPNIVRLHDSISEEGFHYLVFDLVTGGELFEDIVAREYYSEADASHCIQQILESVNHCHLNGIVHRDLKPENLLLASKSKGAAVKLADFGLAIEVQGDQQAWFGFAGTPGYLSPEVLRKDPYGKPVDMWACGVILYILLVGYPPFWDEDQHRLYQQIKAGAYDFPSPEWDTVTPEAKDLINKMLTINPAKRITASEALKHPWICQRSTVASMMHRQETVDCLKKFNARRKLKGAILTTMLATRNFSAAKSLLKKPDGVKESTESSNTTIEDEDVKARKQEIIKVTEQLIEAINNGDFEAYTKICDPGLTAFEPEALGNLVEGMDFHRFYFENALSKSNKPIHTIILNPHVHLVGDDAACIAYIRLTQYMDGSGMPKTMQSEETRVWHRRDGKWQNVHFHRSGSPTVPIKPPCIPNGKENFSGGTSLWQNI
Assay: Kinase Profiler, residual kinase activity
Assay type: biochemical
Details: CAMK2D; inhibitor at 500 nM; read-out: percentage of the remaining kinase activity
Give bare numbers, in %.

>>> df
                                   compound           assay_system               outcome_measure  reported_result
0  COC1C(N(C)C(=O)C(N)CCC(=O)OC(C)(C)C)CC2OC1(C)n1c3ccccc3c3c4c(c5c6ccccc6n2c5c31)C(=O)NC4 (stereo not shown)  CAMK2D (Homo sapiens)  remaining activity at 0.5 µM             12.7
1  COC1C(N(C)Cc2ccc(-c3ccccc3)cc2)CC2OC1(C)n1c3ccccc3c3c4c(c5c6ccccc6n2c5c31)C(=O)NC4 (stereo not shown)  CAMK2D (Homo sapiens)  remaining activity at 0.5 µM              1.1
2  COC1C(N(C)C(=O)C(N)Cc2ccc(O)cc2)CC2OC1(C)n1c3ccccc3c3c4c(c5c6ccccc6n2c5c31)C(=O)NC4 (stereo not shown)  CAMK2D (Homo sapiens)  remaining activity at 0.5 µM             10.1

Batch request: remaining activity at 0.5 µM per item, same order as input.
1. COC1C(N(C)C(=O)C(N)Cc2c[nH]cn2)CC2OC1(C)n1c3ccccc3c3c4c(c5c6ccccc6n2c5c31)C(=O)NC4 (stereo not shown)
2. COC1C(N(C)C(=O)C(N)Cc2ccc(OC(C)(C)C)cc2)CC2OC1(C)n1c3ccccc3c3c4c(c5c6ccccc6n2c5c31)C(=O)NC4 (stereo not shown)
3. COC1C(N(C)C(=O)C(N)Cc2cn(C(=O)OC(C)(C)C)c3ccccc23)CC2OC1(C)n1c3ccccc3c3c4c(c5c6ccccc6n2c5c31)C(=O)NC4 (stereo not shown)
4. COC1C(N(C)C(=O)C(N)CCC(=O)O)CC2OC1(C)n1c3ccccc3c3c4c(c5c6ccccc6n2c5c31)C(=O)NC4 (stereo not shown)

1: 2; 2: 6.7; 3: 16.1; 4: 2.3

----------
Molecular target: UniProt O15530
Sequence (O15530 whole entry): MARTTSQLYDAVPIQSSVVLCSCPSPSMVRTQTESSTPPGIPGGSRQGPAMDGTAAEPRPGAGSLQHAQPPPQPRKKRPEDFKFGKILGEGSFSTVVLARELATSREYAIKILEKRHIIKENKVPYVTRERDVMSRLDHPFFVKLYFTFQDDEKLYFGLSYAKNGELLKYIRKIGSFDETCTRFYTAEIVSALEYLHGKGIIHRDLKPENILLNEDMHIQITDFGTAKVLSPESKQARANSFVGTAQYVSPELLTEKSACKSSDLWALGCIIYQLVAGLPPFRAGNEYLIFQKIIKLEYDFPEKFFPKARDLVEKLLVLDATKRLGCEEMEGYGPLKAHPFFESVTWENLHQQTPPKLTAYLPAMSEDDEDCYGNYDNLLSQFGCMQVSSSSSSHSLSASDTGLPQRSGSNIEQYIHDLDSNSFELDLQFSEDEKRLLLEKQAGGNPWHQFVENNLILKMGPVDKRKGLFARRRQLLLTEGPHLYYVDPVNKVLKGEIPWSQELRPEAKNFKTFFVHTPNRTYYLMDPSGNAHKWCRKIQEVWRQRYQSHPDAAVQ
Experiment: Kinase Profiler, residual kinase activity
Format: biochemical
Conditions: PDPK1; inhibitor at 500 nM; read-out: percentage of the remaining kinase activity
outcome_measure: remaining activity at 0.5 µM

Please review the following examples before continuing.
>>> print(df.to_string())
                                   molecule  reported_result
0  COC1C(N(C)C(=O)C(N)Cc2cn(C(=O)OC(C)(C)C)c3ccccc23)CC2OC1(C)n1c3ccccc3c3c4c(c5c6ccccc6n2c5c31)C(=O)NC4 (centres unmarked)              81%
1  COC1C(N(C)Cc2ccc(-c3ccccc3)cc2)CC2OC1(C)n1c3ccccc3c3c4c(c5c6ccccc6n2c5c31)C(=O)NC4 (centres unmarked)             2.7%
2  COC1C(N(C)C(=O)C(N)CCC(=O)OC(C)(C)C)CC2OC1(C)n1c3ccccc3c3c4c(c5c6ccccc6n2c5c31)C(=O)NC4 (centres unmarked)             3.4%

Batch request: remaining activity at 0.5 µM per item, same order as input.
1. CN[C@@H]1C[C@H]2O[C@@](C)([C@@H]1OC)n1c3ccccc3c3c4c(c5c6ccccc6n2c5c31)C(=O)NC4 [STU, staurosporine, reference compound]
2. COC1C(N(C)C(=O)C(N)Cc2ccc(O)cc2)CC2OC1(C)n1c3ccccc3c3c4c(c5c6ccccc6n2c5c31)C(=O)NC4 (centres unmarked)

1: -1.8%; 2: 2%

Batch request: remaining activity at 0.5 µM per item, same order as input.
1. COC1C(N(C)C(=O)C(N)Cc2c[nH]cn2)CC2OC1(C)n1c3ccccc3c3c4c(c5c6ccccc6n2c5c31)C(=O)NC4 (centres unmarked)
2. COC1C(N(C)C(=O)C(N)CCC(=O)O)CC2OC1(C)n1c3ccccc3c3c4c(c5c6ccccc6n2c5c31)C(=O)NC4 (centres unmarked)
3. COC1C(N(C)C(=O)C(N)Cc2ccc(OC(C)(C)C)cc2)CC2OC1(C)n1c3ccccc3c3c4c(c5c6ccccc6n2c5c31)C(=O)NC4 (centres unmarked)

1: 0.5%; 2: 0.5%; 3: 13.3%

----------
Target: MERTK (Homo sapiens, UniProt Q12866)
Sequence (Q12866 21-999): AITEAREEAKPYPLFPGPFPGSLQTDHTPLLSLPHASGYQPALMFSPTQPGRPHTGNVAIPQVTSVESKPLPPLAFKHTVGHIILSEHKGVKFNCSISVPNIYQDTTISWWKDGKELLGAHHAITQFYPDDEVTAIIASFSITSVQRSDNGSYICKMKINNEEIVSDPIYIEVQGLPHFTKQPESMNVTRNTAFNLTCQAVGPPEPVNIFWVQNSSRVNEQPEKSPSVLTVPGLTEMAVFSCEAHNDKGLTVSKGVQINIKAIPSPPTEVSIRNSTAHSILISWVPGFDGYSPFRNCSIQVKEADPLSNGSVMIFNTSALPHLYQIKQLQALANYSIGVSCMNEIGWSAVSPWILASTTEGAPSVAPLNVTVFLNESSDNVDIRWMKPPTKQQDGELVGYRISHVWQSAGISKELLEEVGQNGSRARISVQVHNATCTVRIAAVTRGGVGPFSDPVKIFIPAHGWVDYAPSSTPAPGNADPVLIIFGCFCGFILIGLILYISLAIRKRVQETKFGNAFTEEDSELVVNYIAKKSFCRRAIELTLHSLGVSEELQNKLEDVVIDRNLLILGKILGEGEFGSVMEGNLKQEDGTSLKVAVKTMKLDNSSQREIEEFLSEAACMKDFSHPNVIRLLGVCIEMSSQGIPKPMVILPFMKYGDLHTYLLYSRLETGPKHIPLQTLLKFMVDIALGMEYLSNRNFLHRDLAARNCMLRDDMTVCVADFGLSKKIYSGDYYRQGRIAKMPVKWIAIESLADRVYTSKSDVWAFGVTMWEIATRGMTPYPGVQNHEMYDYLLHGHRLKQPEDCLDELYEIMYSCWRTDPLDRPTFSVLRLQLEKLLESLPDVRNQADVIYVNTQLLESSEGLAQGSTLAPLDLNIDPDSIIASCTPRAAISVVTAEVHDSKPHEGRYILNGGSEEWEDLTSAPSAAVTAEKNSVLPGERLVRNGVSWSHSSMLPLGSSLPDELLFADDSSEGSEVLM
Experiment: Kinase Profiler, residual kinase activity
Assay type: biochemical
Settings: MERTK; inhibitor at 500 nM; read-out: percentage of the remaining kinase activity
One threshold, 70%, splits the recorded remaining activity at 0.5 µM values: lower ones are Met, equal or higher ones are Not met.

>>> df
                                   molecule      cat
0  COC1C(N(C)C(=O)C(N)CCC(=O)OC(C)(C)C)CC2OC1(C)n1c3ccccc3c3c4c(c5c6ccccc6n2c5c31)C(=O)NC4 (stereo not shown)  Not met
1  COC1C(N(C)C(=O)C(N)Cc2cn(C(=O)OC(C)(C)C)c3ccccc23)CC2OC1(C)n1c3ccccc3c3c4c(c5c6ccccc6n2c5c31)C(=O)NC4 (stereo not shown)  Not met
2  COC1C(N(C)C(=O)C(N)CCC(=O)O)CC2OC1(C)n1c3ccccc3c3c4c(c5c6ccccc6n2c5c31)C(=O)NC4 (stereo not shown)      Met
3  COC1C(N(C)C(=O)C(N)Cc2ccc(OC(C)(C)C)cc2)CC2OC1(C)n1c3ccccc3c3c4c(c5c6ccccc6n2c5c31)C(=O)NC4 (stereo not shown)  Not met
4  COC1C(N(C)C(=O)C(N)Cc2c[nH]cn2)CC2OC1(C)n1c3ccccc3c3c4c(c5c6ccccc6n2c5c31)C(=O)NC4 (stereo not shown)      Met

Here is another molecule to look at.
remaining activity at 0.5 µM strictly < 70% for this molecule? COC1C(N(C)Cc2ccc(-c3ccccc3)cc2)CC2OC1(C)n1c3ccccc3c3c4c(c5c6ccccc6n2c5c31)C(=O)NC4 (stereo not shown)
Met
